Provide the recorded pIC50 for the entries that follow.
Target: Cytochrome P450 1A2 (Homo sapiens)
Sequence (P05177 whole entry): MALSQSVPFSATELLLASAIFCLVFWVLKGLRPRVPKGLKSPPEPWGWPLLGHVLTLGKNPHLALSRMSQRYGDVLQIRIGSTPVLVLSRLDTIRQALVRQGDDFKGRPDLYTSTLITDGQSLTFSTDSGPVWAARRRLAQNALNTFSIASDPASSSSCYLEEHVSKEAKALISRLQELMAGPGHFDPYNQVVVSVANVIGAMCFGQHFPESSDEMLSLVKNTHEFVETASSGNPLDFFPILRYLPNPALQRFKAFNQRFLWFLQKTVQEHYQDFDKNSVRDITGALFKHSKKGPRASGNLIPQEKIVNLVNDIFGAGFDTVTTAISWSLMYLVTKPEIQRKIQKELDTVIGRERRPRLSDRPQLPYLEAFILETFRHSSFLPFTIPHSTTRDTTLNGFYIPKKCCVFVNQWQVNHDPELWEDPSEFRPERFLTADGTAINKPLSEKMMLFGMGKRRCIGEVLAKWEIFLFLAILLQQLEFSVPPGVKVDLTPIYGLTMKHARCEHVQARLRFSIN
// pIC50: -log10(molar conc.)

Please report pIC50 for the following compound: Cc1c(-c2ccc3[nH]ncc3c2)ccc2c3oc(CN)nc3c(=O)n(C3CC3)c12
4.91

Please report pIC50 for the following compound: Cc1c(-c2cc(F)c(N)cc2F)ccc2c3oc(CN)nc3c(=O)n(C3CC3)c12
5.12

----------
Provide the recorded MIC for the entries that follow.
system: Staphylococcus aureus; experiment: Antibacterial activity against Staphylococcus aureus ATCC 29213 assessed as reduction in bacterial growth by CLSI method based broth microdilution assay; assay type: functional
Numbers only; they are read as µg/mL.

Enter measured MIC, system Staphylococcus aureus, for the compound shown: C[C@H]1COc2c(-c3cc(F)c(N)cc3F)ccc3c4ocnc4c(=O)n1c23
0.5

Enter measured MIC, system Staphylococcus aureus, for the compound shown: Cc1c(-c2cnc3[nH]ncc3c2)ccc2c3oc(CN)nc3c(=O)n(C3CC3)c12
0.25

Enter measured MIC, system Staphylococcus aureus, for the compound shown: Cc1c(-c2ccc(C(C)N)cc2)ccc2c3ocnc3c(=O)n(C3CC3)c12 (stereo not given)
0.5

Enter measured MIC, system Staphylococcus aureus, for the compound shown: CCn1c(=O)c2ncoc2c2ccc(-c3cc(F)c(N)cc3F)c(C)c21
2

Enter measured MIC, system Staphylococcus aureus, for the compound shown: Cc1c(-c2ccc3[nH]ncc3c2)ccc2c3ocnc3c(=O)n(C3CC3)c12
0.004

Enter measured MIC, system Staphylococcus aureus, for the compound shown: Cc1c(-c2ccc3c(c2)CNC3)ccc2c3ocnc3c(=O)n(C3CC3)c12
0.12

Enter measured MIC, system Staphylococcus aureus, for the compound shown: Cc1c(-c2ccc3nonc3c2)ccc2c3ocnc3c(=O)n(C3CC3)c12
0.25

Enter measured MIC, system Staphylococcus aureus, for the compound shown: Nc1cc(F)c(-c2ccc3c4ocnc4c(=O)n(C4CC4)c3c2Cl)cc1F
0.25

Enter measured MIC, system Staphylococcus aureus, for the compound shown: Cc1c(-c2cc(F)c(CO)cc2F)ccc2c3ocnc3c(=O)n(C3CC3)c12
0.06

Enter measured MIC, system Staphylococcus aureus, for the compound shown: CCn1c(=O)c2ncoc2c2cc(F)c(-c3cc(F)c(N)cc3F)c(C)c21
1

----------
experimental.endpoint: pIC50
// pIC50: -log10(molar conc.)

Enter measured pIC50, system Voltage-gated inwardly rectifying potassium channel KCNH2 (Homo sapiens), for the molecule shown: Cc1c(-c2cnc3[nH]ncc3c2)ccc2c3oc(CN)nc3c(=O)n(C3CC3)c12
4.35
